Target: Human immunodeficiency virus type 1 integrase (Human immunodeficiency virus 1)
Experiment: Inhibition of HIV1 integrase activity by measuring multimerization of His-tagged integrase/FLAG-tagged integrase incubated for 3 hrs by […] HTRF assay
The source made the active and inactive calls. The calls are words filed in the database; no cut-off is given here.
Labels: active, inactive

Smiles entry: O=C(O)c1cn(Cc2ccc(F)cc2)c2ccc(OCc3ccc(F)cc3)cc2c1=O
Tested target: Human immunodeficiency virus type 1 integrase (Human immunodeficiency virus 1)
Class name: inactive

Smiles entry: O=C(O)/C(O)=C/C(=O)c1ccc2[nH]cc(C(=O)/C=C(\O)C(=O)O)c(=O)c2c1
Tested target: Human immunodeficiency virus type 1 integrase (Human immunodeficiency virus 1)
Class name: active

Smiles entry: O=C(O)/C(O)=C/C(=O)c1cn(Cc2ccc(F)cc2)c2ccc(C(=O)c3ccc(C(=O)O)cc3)cc2c1=O
Tested target: Human immunodeficiency virus type 1 integrase (Human immunodeficiency virus 1)
Class name: active
